Where these numbers come from: ChEMBL document CHEMBL1201862

tested on: OVCAR-3; assay: NCI tumour cell line growth inhibition, 48 h
The source made the active and inactive calls. No stated cut-off is given here; in the data, active = GI50 up to about 1.1 µM and inactive = higher.
experimental.endpoint: GI50

Observe how each entry below is paired with its result.
Incoming: Return value of GI50 for input CN(C)C(=O)OC(Cn1cncn1)c1ccc(Cl)cc1Cl (configuration not stated) , no commentary.
Outgoing: > 100 µM (inactive)

Incoming: Return value of GI50 for input COc1ccc(Br)c2c1CC(C(=O)O)CC2 (configuration not stated) , no commentary.
Outgoing: > 100 µM (inactive)

Incoming: Return value of GI50 for input CC(C)=CC1CC(=[N+]=[N-])C(=O)C1(C)C (configuration not stated) , no commentary.
Outgoing: > 100 µM (inactive)

Incoming: Return value of GI50 for input Cc1nn(-c2nc3ccccc3s2)c2c1C(=O)c1ccccc1-2 , no commentary.
Outgoing: > 100 µM (inactive)

Incoming: Return value of GI50 for input Cn1c2ccccc2n2c(=O)c3cc([N+](=O)[O-])ccc3c(C#N)c12 , no commentary.
Outgoing: > 100 µM (inactive)

Incoming: Return value of GI50 for input Cc1cccc(/C=N/C23CC4CC(CC(C4)C2)C3)c1 , no commentary.
Outgoing: > 100 µM (inactive)

Incoming: Return value of GI50 for input COC(=O)/C(C)=C/[N+](=O)[O-] , no commentary.
Outgoing: 16 µM (inactive)

Incoming: Return value of GI50 for input COc1ccc(N/N=C/C2=CC(C)(C)C(C#N)(C#N)C(O)=C2C#N)cc1 , no commentary.
Outgoing: 21.6 µM (inactive)

Incoming: Return value of GI50 for input C=C1CC(Cn2cc(C)c(=O)[nH]c2=O)(c2ccc(-c3ccccc3)cc2)OC1=O (configuration not stated) , no commentary.
Outgoing: 1.21 µM (inactive)

Incoming: Return value of GI50 for input C1CN(c2nc3c(nnc4nc(N5CCOCC5)sc43)s2)CCO1 , no commentary.
Outgoing: 78.3 µM (inactive)

---
Incoming: Return value of GI50 for input O=CN/C=C/c1ccccc1O , no commentary.
Outgoing: > 100 µM (inactive)

Incoming: Return value of GI50 for input O=NN1C(c2ccccc2)C2CCCC(C2=O)C1c1ccccc1 (configuration not stated) , no commentary.
Outgoing: 4.82 µM (inactive)

====

Reported GI50 values for a set of molecules
test system: IGROV-1; test: NCI tumour cell line growth inhibition, 48 h
The source made the active and inactive calls. No stated cut-off is given here; in the data, active = GI50 up to about 1.1 µM and inactive = higher. Residues, ends and D or L forms follow the SMILES beside them. *: point of attachment. Boc = CC(C)(C)OC(=O)*; Bz = O=C(c1ccccc1)*

Incoming: Return value of GI50 for input O=C1c2ccccc2-c2nnc(-c3ccc(Cl)cc3)cc21 , no commentary.
Outgoing: > 10 µM (inactive)

Incoming: Return value of GI50 for input COc1ccc(/C=C2\CCCC(CN(C)C)C2=O)cc1 (stereo not given) , no commentary.
Outgoing: 2.69 µM (inactive)

Incoming: Return value of GI50 for input CN(O)C(=O)c1ccc(OCc2cccc(Cl)c2)cc1 , no commentary.
Outgoing: 16.7 µM (inactive)

Incoming: Return value of GI50 for input NCCN/C(=N\c1ccccc1)Nc1ccccc1 , no commentary.
Outgoing: > 100 µM (inactive)

Incoming: Return value of GI50 for input O=C(/C=C/c1csc(-c2ccccc2)n1)NCc1ccc(C(=O)NCc2ccccc2)cc1 , no commentary.
Outgoing: 37.2 µM (inactive)

Incoming: Return value of GI50 for input CCCCCC(=O)N[C@@H](c1ccccc1)C(O)C(=O)OC1C[C@@]2(O)C(OC(=O)c3ccccc3)C3[C@](C)(C(=O)[C@H](O)C(=C1C)C2(C)C)C(OC1OCC(O)C(O)C1O)C[C@H]1OC[C@@]31OC(C)=O (stereo not given in full) , no commentary.
Outgoing: 3.99 µM (inactive)

Incoming: Return value of GI50 for input CC(NC(=O)C(Cc1ccc(OC(=O)c2ccccc2)cc1)NC(=O)OC(C)(C)C)C(=O)NC(Cc1ccccc1)C(=O)NCC(N)=O (stereo not given) (Boc-Y(Bz)AFG-NH2; configuration not given here) , no commentary.
Outgoing: 20.4 µM (inactive)

Incoming: Return value of GI50 for input COc1ccc(C2COc3c(ccc(OC)c3OC)C2=O)cc1OC (stereo not given) , no commentary.
Outgoing: > 100 µM (inactive)

Incoming: Return value of GI50 for input CSc1ccc(-c2cc(-c3nc4ccccc4[nH]3)no2)cc1 , no commentary.
Outgoing: 23.2 µM (inactive)

Incoming: Return value of GI50 for input O=C(O)c1cnc2cc(OCc3ccccc3)ccc2c1O , no commentary.
Outgoing: 18.3 µM (inactive)

---
Incoming: Return value of GI50 for input C=C(Br)CN(C#N)CC(=C)Br , no commentary.
Outgoing: > 100 µM (inactive)

Incoming: Return value of GI50 for input CCCC1CCC(=C2C(=O)CCC2=O)O1 (stereo not given) , no commentary.
Outgoing: > 100 µM (inactive)

Incoming: Return value of GI50 for input O=C(Nc1ccn(CCOC(=O)c2ccccc2)c(=O)n1)c1ccccc1 , no commentary.
Outgoing: > 100 µM (inactive)

Incoming: Return value of GI50 for input C#Cc1ccccc1C(=O)OC , no commentary.
Outgoing: > 100 µM (inactive)

Incoming: Return value of GI50 for input CCOC(=O)C1(C/C=C\CBr)CCCCCCCCCCC1=O (stereo not given) , no commentary.
Outgoing: 2.94 µM (inactive)

Incoming: Return value of GI50 for input C[N+](C)(N)Cc1csc(-c2ccc(Cl)cc2)n1 , no commentary.
Outgoing: > 100 µM (inactive)

Incoming: Return value of GI50 for input COc1ccc2c3c([nH]c2c1)[C@H]1C[C@H]2[C@H](C[C@@H](O)[C@H](OC)[C@H]2C(=O)O)CN1CC3 , no commentary.
Outgoing: > 100 µM (inactive)

Incoming: Return value of GI50 for input COC1/C=C/O[C@@]2(C)Oc3c(C)c(O)c4c(O)c(cc(O)c4c3C2=O)NC(=O)/C(C)=C\C=C\[C@H](C)C(O)[C@@H](C)[C@@H](O)[C@@H](C)[C@H](OC(C)=O)[C@@H]1C (stereo not given in full) , no commentary.
Outgoing: 22.7 µM (inactive)

Incoming: Return value of GI50 for input COc1cc2c3c(cc(Cl)nc3c1OC)C(=O)C(=O)N2 , no commentary.
Outgoing: 9.89 µM (inactive)

Incoming: Return value of GI50 for input O=C(Nc1ccccc1-c1n[nH]c(S)nc1=O)C(F)(F)F , no commentary.
Outgoing: > 100 µM (inactive)

====

system: SR; experiment: NCI tumour cell line growth inhibition, 48 h
Active and inactive are the calls of the source. Cut-off read from the data, not from the text of the source: active = GI50 up to about 1.1 µM and inactive = higher.
Reported GI50 values for a set of compounds

Observe how each entry below is paired with its result.
Incoming: Return value of GI50 for input COC(=O)C1=C(\O)C[C@@]2(C)CC[C@@H](C(=O)OC)C2C/C=C\1C(=O)OC (stereo not given in full) , no commentary.
Outgoing: 81.3 µM (inactive)

Incoming: Return value of GI50 for input CO[C@@H]1C[C@H]2[C@@H]3CC[C@H]([C@H](C)CO)[C@@]3(C)CC[C@@H]2[C@@]2(C)CC[C@H]3C[C@]312 , no commentary.
Outgoing: 37.5 µM (inactive)

Incoming: Return value of GI50 for input SCCSCCCSCCS , no commentary.
Outgoing: 4.16 µM (inactive)

Incoming: Return value of GI50 for input CC(C)/C=C1\CCC(CN2CCOCC2)C1=O (stereo not given) , no commentary.
Outgoing: 3.75 µM (inactive)

Could you now look at the following compound, please?
Incoming: Return value of GI50 for input O=P(O)(Cc1ccccc1)c1ccccc1-c1ccccc1 , no commentary.
Outgoing: > 100 µM (inactive)

====

test system: NCI-H460; assay: NCI tumour cell line growth inhibition, 48 h
Active and inactive are the calls of the source. Rule as the data show it: active = GI50 up to about 1.1 µM and inactive = higher.
Choose the fitting class; nothing outside active, inactive is accepted.

Completed entries (count: 6):
Incoming: Record request — test call for O=C(O)c1cnc2cc(OCc3ccccc3)ccc2c1O
Outgoing: inactive

Incoming: Record request — test call for COc1ccc2c(c1)C=C([N+](=O)[O-])C(C1OC(C)(C)OC1C1COC(C)(C)O1)O2 (stereo unspecified)
Outgoing: inactive

Incoming: Record request — test call for O=C(/C=C(\Nc1ccccc1O)c1ccccc1)C(=O)NC12CC3CC(CC(C3)C1)C2
Outgoing: inactive

Incoming: Record request — test call for CC(C)(C)c1ccc2c(c1)OCc1n[nH]c(n1)COc1cc(C(C)(C)C)ccc1OCCOCCO2
Outgoing: inactive

Incoming: Record request — test call for COC1OC(C)C(OC(=O)C(C)(C)C)C(OS(=O)(=O)c2ccc(C)cc2)C1OS(=O)(=O)c1ccc(C)cc1 (stereo unspecified)
Outgoing: inactive

Incoming: Record request — test call for C[O+]=C1C=CC(=C2SC(c3ccccc3)(c3ccccc3)c3ccccc32)C=C1.[O-][Cl+3]([O-])([O-])[O-]
Outgoing: inactive

---
Incoming: Record request — test call for CCCCCC(=O)N[C@@H](c1ccccc1)C(O)C(=O)OC1C[C@@]2(O)C(OC(=O)c3ccccc3)C3[C@](C)(C(=O)[C@H](O)C(=C1C)C2(C)C)C(OC1OCC(O)C(O)C1O)C[C@H]1OC[C@@]31OC(C)=O (stereo partly specified)
Outgoing: active

Incoming: Record request — test call for CCOC(=O)/N=C(\N)SCc1ccccc1
Outgoing: inactive

Incoming: Record request — test call for COc1ccc(S(=O)(=O)N/N=C/CN2C(=O)c3ccccc3C2=O)cc1OC
Outgoing: inactive
